Where these numbers come from: PubChem BioAssay

- assay procedure: sensitizers of A549 cells to miR-34 induction, primary screen, imaging, A549 dox-inducible miR-34, nuclei and caspase counts (AID 1347080); further: test concentration not given here
- condition label: A549 miR-34 inducible, Hoechst nuclei count, 48 h; measured here: total cells without miR-34 induction
Decision: cell count beneath 10000 gives Condition met; cell count meeting or exceeding 10000 gives Condition not met.

Worked examples follow.
[[record]]
compound = "Cc1cc(I)ccc1Nc1c(C(=O)NOCC2CC2)cc(F)c(F)c1F"
class_name = "Condition met"

[[record]]
compound = "O=C1O[C@@H](CO)[C@H](O)[C@@H](O)[C@@H]1O"
class_name = "Condition not met"

[[record]]
compound = "C=CCCCCCCCCC(=O)[O-].C=CCCCCCCCCC(=O)[O-].[Zn+2]"
class_name = "Condition not met"


Shifting focus to the compound that follows.
Query: cell count strictly < 10000 for this compound? CC(C)(O/N=C(\C(=O)N[C@@H]1C(=O)N2C(C(=O)[O-])=C(C[n+]3ccccc3)CSC12)c1csc(N)n1)C(=O)O (stereo not given in full)
Result: Condition not met
